Target: T1, human TREM2 (human) (UniProt Q9NZC2)
T1 sequence (looked up): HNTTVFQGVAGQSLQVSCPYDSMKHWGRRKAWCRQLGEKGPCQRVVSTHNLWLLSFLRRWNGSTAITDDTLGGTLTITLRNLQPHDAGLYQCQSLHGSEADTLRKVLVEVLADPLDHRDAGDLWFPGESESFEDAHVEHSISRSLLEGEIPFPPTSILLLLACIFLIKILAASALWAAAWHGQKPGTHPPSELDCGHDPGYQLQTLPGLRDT
Test: 1st screen, 110 nM Ab
Note to self: Binding Signal (fold over 6E7 parental antibody) under 0.3 fold means Met, ties and anything higher get Not met.

[
  {
    "binder": "6E7 variant V83 (antibody, V domains shown) VH: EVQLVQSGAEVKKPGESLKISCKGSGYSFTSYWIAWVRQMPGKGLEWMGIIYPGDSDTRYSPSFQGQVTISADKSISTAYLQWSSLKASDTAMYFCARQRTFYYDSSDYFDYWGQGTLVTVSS VL: DIQMTQSPSSVSASVGDRVTITCRASQGISSWLAWYQQKPGKAPKLLIYAASSLQNGVPSRFSGSGSGTDFTLTISSLQPEDFATYFCQQAVSFPRTFGQGTKLEIK",
    "label.class": "Met"
  },
  {
    "binder": "6E7 variant V93 (antibody, V domains shown) VH: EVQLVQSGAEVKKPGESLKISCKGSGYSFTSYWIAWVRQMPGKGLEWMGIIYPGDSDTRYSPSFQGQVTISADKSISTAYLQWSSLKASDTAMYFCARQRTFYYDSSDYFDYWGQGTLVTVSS VL: DIQMTQSPSSVSASVGDRVTITCRASQGISGWLAWYQQKPGKAPKLLIYAASSLQNGVPSRFSGSGSGTDFTLTISSLQPEDFATYFCQQADSFPRTFGQGTKLEIK",
    "label.class": "Not met"
  },
  {
    "binder": "6E7 variant V33 (antibody, V domains shown) VH: EVQLVQSGAEVKKPGESLKISCKGSGYSFTSYWIAWVRQMPGKGLEWMGIIYPGDSDTRYSPSFQGQVTISADKSISTAYLQWSSLKASDTAMYFCARQRTFYGDSSDYFDYWGQGTLVTVSS VL: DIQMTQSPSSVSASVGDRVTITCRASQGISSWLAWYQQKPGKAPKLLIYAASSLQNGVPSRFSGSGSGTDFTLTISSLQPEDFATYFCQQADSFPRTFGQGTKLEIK",
    "label.class": "Met"
  },
  {
    "binder": "6E7 variant V23 (antibody, V domains shown) VH: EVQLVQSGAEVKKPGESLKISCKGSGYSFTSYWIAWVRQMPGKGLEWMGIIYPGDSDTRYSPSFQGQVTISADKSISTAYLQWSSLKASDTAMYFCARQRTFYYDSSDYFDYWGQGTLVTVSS VL: DIQMTQSPSSVSASVGDRVTITCRASQGISSWLAWYQQKPGKAPKLLIYAASSLQNGVPSRFSGSGSGTDFTLTISSLQPEDFATYFCQQADSFPLTFGQGTKLEIK",
    "label.class": "Not met"
  },
  {
    "binder": "6E7 variant V34 (antibody, V domains shown) VH: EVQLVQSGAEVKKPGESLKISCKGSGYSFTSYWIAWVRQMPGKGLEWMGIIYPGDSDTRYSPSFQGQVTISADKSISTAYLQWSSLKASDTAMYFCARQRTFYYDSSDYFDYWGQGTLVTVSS VL: DIQMTQSPSSVSASVGDRVTITCRASQGISSWLAWYQQKPGKAPKLLIYAASSLQDGVPSRFSGSGSGTDFTLTISSLQPEDFATYFCQQADSFPRTFGQGTKLEIK",
    "label.class": "Not met"
  }
]
